assay: photoluminescence quantum yield (fraction); solvent given as SMILES; conditions: in C1COCCO1
photoluminescence quantum yield strictly less than 0.2 = Criterion met. Otherwise Criterion not met.

Solved cases below.
[
  {
    "compound-structure-string": "CN(C)c1nc(N(C)C)c2nc(C#N)n(Cc3ccccc3)c2n1",
    "class": "Criterion not met"
  },
  {
    "compound-structure-string": "CN(C)c1nc(N)c2nc(C#N)n(Cc3ccccc3)c2n1",
    "class": "Criterion not met"
  },
  {
    "compound-structure-string": "Clc1nc(Nc2ccccc2)nc(Nc2ccc3cc4ccccc4cc3c2)n1",
    "class": "Criterion not met"
  },
  {
    "compound-structure-string": "CCCCCCCN1C(=CC2=C([O-])C(=CC3=[N+](CCCCCCC)c4ccccc4C3(C)C)C2=C(C#N)C#N)C(C)(C)c2ccccc21",
    "class": "Criterion met"
  },
  {
    "compound-structure-string": "Clc1nc(Nc2ccccc2)nc(Nc2ccc3c4cccc5cccc(c6cccc2c63)c54)n1",
    "class": "Criterion not met"
  },
  {
    "compound-structure-string": "Cc1cnc(NC(=O)C2=C(O)c3ccccc3S(=O)(=O)N2C)s1",
    "class": "Criterion met"
  }
]

Query: I'd appreciate it if you could check whether CCC1=C(C)C2=C(c3c(C)cc(C)nc3-c3cccs3)c3c(C)c(CC)c(C)n3[B-](F)(F)[N+]2=C1C has photoluminescence quantum yield smaller than 0.2.
Result: Criterion not met

Query: Bench note: check whether CCN(CC)c1ccc2cc(/C=C(\C#N)c3nc4ccccc4o3)c(=O)oc2c1 shows photoluminescence quantum yield below 0.2
Result: Criterion met

Query: Bench note: check whether CC1=N/C(=C\c2ccncc2)C(=O)N1C shows photoluminescence quantum yield below 0.2
Result: Criterion met

Query: Answer whether the compound O=C1NC(=O)/C(=C\c2ccccc2O)S1 has photoluminescence quantum yield strictly less than 0.2
Result: Criterion met
